Assay: Competitive inhibition of pig PAP using para-nitrophenol as substrate at pH 4.9 preincubated for 10 mins by UV-visible spectrophotometry
Design: species or system Sus scrofa
experimental.readout: Ki (µM)

# example entries with known answers
molecule="CCCCCCC(=O)NC(c1cccc2ccccc12)P(=O)(O)O (racemic)" endpoint_unit=µM number=116
molecule="CCCC(=O)NC(c1cccc2ccccc12)P(=O)(O)O (racemic)" endpoint_unit=µM number=363
molecule="CCCCCCCC(=O)NC(c1cccc2ccccc12)P(=O)(O)O (racemic)" endpoint_unit=µM number=44
molecule="CCCCCCCCCCCCCC(=O)NC(c1cccc2ccccc12)P(=O)(O)O (racemic)" endpoint_unit=µM number=8

P: CCCCCCCCCC(=O)NC(c1cccc2ccccc12)P(=O)(O)O (racemic)
Q: CCCCCCCCCCCC(=O)NC(c1cccc2ccccc12)P(=O)(O)O (racemic)
When the recorded Ki values are compared, which is smaller: that of P or that of Q ? Indicate which entry you chose by stating its label.
P
(P: 10 µM, Q: 21 µM)

---

Biological target: Fe(3+)-Zn(2+) purple acid phosphatase (Phaseolus vulgaris)
Sequence (P80366 whole entry): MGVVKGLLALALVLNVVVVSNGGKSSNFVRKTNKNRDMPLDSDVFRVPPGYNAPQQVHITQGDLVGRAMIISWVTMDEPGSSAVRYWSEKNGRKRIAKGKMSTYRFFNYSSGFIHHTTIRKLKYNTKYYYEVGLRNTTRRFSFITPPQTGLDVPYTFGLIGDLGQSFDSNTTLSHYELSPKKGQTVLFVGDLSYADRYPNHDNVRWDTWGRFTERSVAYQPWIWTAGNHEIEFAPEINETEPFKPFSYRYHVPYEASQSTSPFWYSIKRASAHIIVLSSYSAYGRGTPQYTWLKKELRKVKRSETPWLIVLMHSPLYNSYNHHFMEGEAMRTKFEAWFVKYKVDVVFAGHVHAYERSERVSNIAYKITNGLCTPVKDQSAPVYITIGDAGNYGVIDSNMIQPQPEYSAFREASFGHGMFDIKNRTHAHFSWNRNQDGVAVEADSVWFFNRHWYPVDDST
Test: Competitive inhibition of red kidney bean PAP using para-nitrophenol as substrate at pH 4.9 preincubated for 10 mins by UV-visible spectrophotometry
experimental.readout: Ki (µM)

compound="CCCCCCCCCCCCCC(=O)NC(c1cccc2ccccc12)P(=O)(O)O (racemic)" experimental_readout=Ki number=11

a: CCCCCCCCCC(=O)NC(c1cccc2ccccc12)P(=O)(O)O (racemic)
b: CCCCCCC(=O)NC(c1cccc2ccccc12)P(=O)(O)O (racemic)
Recorded Ki values differ for a and b ; which one is higher? Indicate which entry you chose by stating its label.
b
(b: 222 µM, a: 57 µM)
